target: E. coli ADP-Glc PPase (Escherichia coli, UniProt P0A6V1); construct: made in house; host or cells: E. coli BL21 (DE3); experiment: ADP-Glc synthesis assay (Pi formation, Malachite Green) with Hill-equation kinetic characterization; format: biochemical; conditions: presence of 1 µM PLP (data not shown); read-out: A 0.5 for Pyr
Sequence (P0A6V1 whole entry): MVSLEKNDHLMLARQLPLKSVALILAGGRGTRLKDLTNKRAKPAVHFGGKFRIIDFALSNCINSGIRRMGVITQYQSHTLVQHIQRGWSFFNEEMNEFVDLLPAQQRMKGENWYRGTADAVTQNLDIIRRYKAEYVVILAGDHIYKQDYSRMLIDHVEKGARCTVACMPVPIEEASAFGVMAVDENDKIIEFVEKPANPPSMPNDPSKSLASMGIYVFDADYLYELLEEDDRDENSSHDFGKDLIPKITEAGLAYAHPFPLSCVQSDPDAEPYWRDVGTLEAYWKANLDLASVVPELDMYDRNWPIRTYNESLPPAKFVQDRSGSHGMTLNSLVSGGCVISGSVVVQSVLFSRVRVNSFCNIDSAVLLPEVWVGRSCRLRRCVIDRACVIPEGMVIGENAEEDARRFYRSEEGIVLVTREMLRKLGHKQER
attribute measured: EC50 (mM)

* CC(=O)C(=O)O [Pyr, pyruvate] | 3.7

###

target: E. coli ADP-Glc PPase (Escherichia coli); construct: made in house; host or cells: E. coli BL21 (DE3); experiment: ADP-Glc synthesis assay (Pi formation, Malachite Green) with Hill-equation kinetic characterization; format: biochemical; details: 100 µM Fru-1,6-P2, presence of 20 mM Pyr (Figure 4); read-out: I 0.5 for AMP
pIC50: −log10 of the molar value.
attribute measured: pIC50

- Nc1ncnc2c1ncn2[C@@H]1O[C@H](COP(=O)(O)O)[C@@H](O)[C@H]1O [AMP]: 3.96

###

biological target: E. coli ADP-Glc PPase (Escherichia coli, UniProt P0A6V1); construct: made in house; host or cells: E. coli BL21 (DE3); assay: ADP-Glc synthesis assay (Pi formation, Malachite Green) with Hill-equation kinetic characterization; assay type: biochemical; details: at 50 µM Fru-1,6-P2; read-out: A 0.5 for Pyr
attribute measured: EC50

• CC(=O)C(=O)O [Pyr, pyruvate] = 5 mM

###

target: E. coli ADP-Glc PPase (Escherichia coli); construct: made in house; host or cells: E. coli BL21 (DE3); test: ADP-Glc synthesis assay (Pi formation, Malachite Green) with Hill-equation kinetic characterization; type: biochemical; conditions: as stated in legend of Figure 5; read-out: A 0.5 for Fru-1,6-P2
attribute measured: EC50 (µM)

- O=C(COP(=O)(O)O)[C@@H](O)[C@H](O)[C@H](O)COP(=O)(O)O [Fru-1,6-P2, Fructose-1,6-bisphosphate]: 100

###

target: E. coli ADP-Glc PPase (Escherichia coli, UniProt P0A6V1); construct: made in house; host or cells: E. coli BL21 (DE3); assay: ADP-Glc synthesis assay (Pi formation, Malachite Green) with Hill-equation kinetic characterization; type: biochemical; conditions: 50 µM AMP and 100 µM Fru-1,6-P2 (Figure 5); read-out: A 0.5 for Pyr
attribute measured: EC50 (µM)

- CC(=O)C(=O)O [Pyr, pyruvate]: 2760

###

target: E. coli ADP-Glc PPase (Escherichia coli, UniProt P0A6V1); construct: made in house; host or cells: E. coli BL21 (DE3); test: ADP-Glc synthesis assay (Pi formation, Malachite Green) with Hill-equation kinetic characterization; format: biochemical; conditions: absence of Pyr (Figure 3B); read-out: A 0.5 for PLP
attribute measured: EC50 (µM)

* Cc1ncc(COP(=O)(O)O)c(C=O)c1O [PLP, pyridoxal-5′-phosphate] | 2.7

###

molecular target: E. coli ADP-Glc PPase (Escherichia coli, UniProt P0A6V1); construct: made in house; host or cells: E. coli BL21 (DE3); test: ADP-Glc synthesis assay (Pi formation, Malachite Green) with Hill-equation kinetic characterization; format: biochemical; settings: absence of Pyr (Figure 3A); read-out: A 0.5 for Fru-1,6-P2
attribute measured: EC50 (µM)

• O=C(COP(=O)(O)O)[C@@H](O)[C@H](O)[C@H](O)COP(=O)(O)O [Fru-1,6-P2, Fructose-1,6-bisphosphate] = 120

###

biological target: E. coli ADP-Glc PPase (Escherichia coli); construct: made in house; host or cells: E. coli BL21 (DE3); experiment: ADP-Glc synthesis assay (Pi formation, Malachite Green) with Hill-equation kinetic characterization; format: biochemical; conditions: 100 µM Fru-1,6-P2, absence of Pyr (Figure 4); read-out: I 0.5 for AMP
pIC50: −log10 of the molar value.
attribute measured: pIC50

- Nc1ncnc2c1ncn2[C@@H]1O[C@H](COP(=O)(O)O)[C@@H](O)[C@H]1O: 4.52
